Cited source: ChEMBL document CHEMBL1201862

# maps each entry to its GI50
# Test system: OVCAR-5
# EXPERIMENTAL DETAILS: NCI tumour cell line growth inhibition, 48 h
Activity calls are given as the source filed them. Cut-off read from the data, not from the text of the source: active = GI50 up to about 1.1 µM and inactive = higher.
READOUT NAME: GI50

>>> value_observed("CC12CCC(C1)C(C)(C)C2OC(=O)c1ccccc1C(=O)O (centres undefined)")
"> 100 µM (inactive)"
>>> value_observed("CC1C2Cc3ccc(O)cc3C1(C)CCN2C (centres undefined)")
"> 100 µM (inactive)"
>>> value_observed("CC(=O)OCC1C(=O)OCC1C(=O)N1Cc2cc3ccccc3nc2C1 (centres undefined)")
"5.69 µM (inactive)"
>>> value_observed("O=C(CN1c2ccccc2Sc2ccccc21)N1CCNCC1")
"> 100 µM (inactive)"
>>> value_observed("O=C(O)c1cc2ccccc2c(/N=N/c2c([N+](=O)[O-])cc([N+](=O)[O-])cc2S(=O)(=O)O)c1O")
"> 100 µM (inactive)"
>>> value_observed("O=CC(O)C(O)C(O)C(O)COC(=O)NCCCCC(=O)C(F)(F)C(F)(F)C(F)(F)C(F)(F)C(F)(F)C(F)(F)C(F)(F)F (centres undefined)")
"17.2 µM (inactive)"
>>> value_observed("COc1ccc2nc3ccccc3c(NCCCCCN(CCCl)CCCl)c2c1")
"0.207 µM (active)"
>>> value_observed("COC(=O)[C@H]1[C@H]2C[C@@H]3c4[nH]c5cc(OC)ccc5c4CCN3C[C@H]2C[C@@H](OC(=O)c2cc(OC)c(OC)c(OC)c2)[C@@H]1OC")
"38 µM (inactive)"
>>> value_observed("Fc1ccc(/C(=N/Cc2ccccc2)N2CCOCC2)cc1")
"> 100 µM (inactive)"
